tested on: U87MG pLVX-IDH2 R140Q-neo cells; experiment: U87MG pLVX-IDH2 R140Q-neo cell based assay, 2-HG in media by LC-MS at 48 hours; details: Homo sapiens, U-87 MG
readout kind: IC50

Take a look at these entries with their results.
>  <compound>
CCC(C)CNc1nc(Nc2ccncc2)nc(-c2ccccc2)n1 (stereo not drawn) [Compound 220]

>  <IC50>
< 100 nM

$$$$
>  <compound>
CC(C)Nc1nc(Cc2ccccc2)nc(Nc2ccccc2)n1 [Compound 103]

>  <IC50>
1000 to 10000 nM

$$$$
>  <compound>
CC(C)Nc1nc(Nc2cc(F)cc(F)c2)nc(-c2nc(O)ccc2F)n1 [Compound 469]

>  <IC50>
< 100 nM

$$$$
>  <compound>
CC(C)Nc1nc(Nc2ccnc(Cl)c2)nc(-c2ccccc2)n1 [Compound 199]

>  <IC50>
< 100 nM

$$$$
>  <compound>
CC(C)Nc1nc(Nc2cncc(C(F)(F)F)c2)nc(-c2ccccc2F)n1 [Compound 372]

>  <IC50>
< 100 nM

$$$$
>  <compound>
COCCCNc1nc(Nc2ccncc2)nc(-c2ccccc2)n1 [Compound 275]

>  <IC50>
100 to 1000 nM

$$$$
>  <compound>
FC(F)(F)c1cc(Nc2nc(NC3C4COCC43)nc(-c3cccc(C(F)(F)F)n3)n2)ccn1 (stereo not drawn) [Compound 504]

>  <IC50>
< 100 nM

$$$$
>  <compound>
CC(C)(CO)CNc1nc(Nc2ccnc(C(F)(F)F)c2)nc(-c2cccc(Cl)n2)n1 [Compound 495]

>  <IC50>
< 100 nM

$$$$

Task: # returns recorded IC50 (system: U87MG pLVX-IDH2 R140Q-neo cells) for O[C@H]1CCC[C@H]1Nc1nc(Nc2ccccc2)nc(-c2ccccc2)n1 [Compound 352]
Result: < 100 nM

====

test system: U87MG pLVX-IDH2 R140Q-neo cells; experiment: U87MG pLVX-IDH2 R140Q-neo cell based assay, 2-HG in media by LC-MS at 48 hours; conditions: Homo sapiens, U-87 MG
Give IC50 for every item shown.

Take a look at these entries with their results.
>  <molecule>
CC(C)Nc1nc(Nc2ccncc2)nc(-c2cccc(F)c2)n1

>  <measured target>
U87MG pLVX-IDH2 R140Q-neo cells

>  <IC50>
100 to 1000 nM

$$$$
>  <molecule>
CC(C)(O)CNc1nc(Nc2cc(F)cc(F)c2)nc(-c2cccc(C(C)(F)F)n2)n1

>  <measured target>
U87MG pLVX-IDH2 R140Q-neo cells

>  <IC50>
< 100 nM

$$$$
>  <molecule>
c1ccc(Nc2nc(N[C@@H]3C[C@@H]4CC[C@H]3C4)nc(-c3ccccc3)n2)cc1

>  <measured target>
U87MG pLVX-IDH2 R140Q-neo cells

>  <IC50>
< 100 nM

$$$$
>  <molecule>
CC(C)(C)Nc1nc(Nc2cc(F)cc(S(C)(=O)=O)c2)nc(-c2cccc(C(C)(F)F)n2)n1

>  <measured target>
U87MG pLVX-IDH2 R140Q-neo cells

>  <IC50>
< 100 nM

$$$$
>  <molecule>
CC(C)Nc1nc(Nc2ccc(C#N)cc2)nc(-c2ccccc2)n1

>  <measured target>
U87MG pLVX-IDH2 R140Q-neo cells

>  <IC50>
100 to 1000 nM

$$$$
>  <molecule>
FC(F)(F)CNc1nc(Nc2ccccc2)nc(-c2ccccc2)n1

>  <measured target>
U87MG pLVX-IDH2 R140Q-neo cells

>  <IC50>
< 100 nM

$$$$
>  <molecule>
CC1(Nc2nc(Nc3ccccc3)nc(-c3ccccc3)n2)COC1

>  <measured target>
U87MG pLVX-IDH2 R140Q-neo cells

>  <IC50>
100 to 1000 nM

$$$$
>  <molecule>
COc1ncccc1-c1nc(Nc2ccnc(C(F)(F)F)c2)nc(NC(C)C)n1

>  <measured target>
U87MG pLVX-IDH2 R140Q-neo cells

>  <IC50>
< 100 nM

$$$$

Batch of 6 molecules: report IC50 for each.
1. FC(F)(F)c1cc(Nc2nc(NCC3CCOC3)nc(-c3cccc(C(F)(F)F)n3)n2)ccn1 (centres unmarked)
2. Cc1cc(Nc2nc(NC(C)C)nc(-c3ccccc3)n2)cc(C)n1
3. OC1CCCC1Nc1nc(Nc2ccnc(C(F)(F)F)c2)nc(-c2cccc(C(F)(F)F)n2)n1 (centres unmarked)
4. CC(C)Nc1nc(Nc2cccc(Cl)c2)nc(-c2ccccc2)n1
5. CC(C)Nc1nc(Nc2ccnc(C(F)(F)F)c2)nc(-c2cccc(=O)[nH]2)n1
6. CC(C)Nc1nc(Nc2ccc(Cl)cc2)nc(-c2ccccc2)n1

Result:
< 100 nM
< 100 nM
< 100 nM
< 100 nM
100 to 1000 nM
100 to 1000 nM

Batch of 3 molecules: report IC50 for each.
1. CC(C)Nc1nc(Nc2ccccc2)nc(-c2ccc(Cl)cc2)n1
2. CC1(Nc2nc(Nc3ccnc(C4CC4)c3)nc(-c3cccc(C(F)(F)F)n3)n2)CC1
3. CC1CC1Nc1nc(Nc2ccnc(C(F)(F)F)c2)nc(-c2ccccn2)n1 (centres unmarked)

Result:
["1000 to 10000 nM", "< 100 nM", "< 100 nM"]

====

system: U87MG pLVX-IDH2 R140Q-neo cells; experiment: U87MG pLVX-IDH2 R140Q-neo cell based assay, 2-HG in media by LC-MS at 48 hours; conditions: Homo sapiens, U-87 MG
pIC50: −log10 of the molar value.
readout kind: pIC50

Take a look at these entries with their results.
>  <compound>
CC(C)Nc1nc(Nc2cc(Cl)cc(S(C)(=O)=O)c2)nc(-c2cccc(C(C)(F)F)n2)n1

>  <pIC50>
> 7.00

$$$$
>  <compound>
CC(C)Nc1nc(Nc2ccnc(F)c2)nc(-c2ccccc2)n1

>  <pIC50>
> 7.00

$$$$
>  <compound>
c1ccc(Nc2nc(NCc3ccccn3)nc(-c3ccccc3)n2)cc1

>  <pIC50>
5.00 to 6.00

$$$$
>  <compound>
CC(C)(O)CNc1nc(Nc2ccc(F)nc2)nc(-c2ccccc2F)n1

>  <pIC50>
6.00 to 7.00

$$$$
>  <compound>
CC(C)Nc1nc(Nc2cncc(C#N)c2)nc(-c2ccccc2)n1

>  <pIC50>
> 7.00

$$$$
>  <compound>
CC(F)(F)c1cccc(-c2nc(NCC3CC3)nc(Nc3cc(Cl)cc(S(C)(=O)=O)c3)n2)n1

>  <pIC50>
> 7.00

$$$$
>  <compound>
CC(C)Nc1nc(Nc2ccc(OC(C)C)nc2)nc(-c2ccccc2)n1

>  <pIC50>
5.00 to 6.00

$$$$

Task: # returns recorded pIC50 (system: U87MG pLVX-IDH2 R140Q-neo cells) for FC(F)(F)c1cc(Nc2nc(NC3CC4CCC3O4)nc(-c3cccc(C(F)(F)F)n3)n2)ccn1 (centres unmarked)
Result: > 7.00

====

molecular target: IDH2 R140Q (Homo sapiens, UniProt P48735, R140Q); experiment: IDH2 R140Q enzymatic assay (cofactor depletion, similar format); assay type: biochemical; settings: read-out: Enz R140Q
Sequence (P48735 40-452 R140Q): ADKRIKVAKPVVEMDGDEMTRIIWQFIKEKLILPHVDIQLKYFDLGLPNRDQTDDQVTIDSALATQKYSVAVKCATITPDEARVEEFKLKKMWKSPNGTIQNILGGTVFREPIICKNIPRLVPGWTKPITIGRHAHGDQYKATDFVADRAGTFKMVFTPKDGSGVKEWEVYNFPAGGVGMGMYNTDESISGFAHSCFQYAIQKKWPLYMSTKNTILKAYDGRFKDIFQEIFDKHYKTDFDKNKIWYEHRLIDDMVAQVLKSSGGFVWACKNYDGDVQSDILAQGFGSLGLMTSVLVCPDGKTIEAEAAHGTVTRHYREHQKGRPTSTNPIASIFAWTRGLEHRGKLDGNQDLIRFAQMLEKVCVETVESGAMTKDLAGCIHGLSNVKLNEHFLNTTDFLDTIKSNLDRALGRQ
Give IC50 for every item shown.

>  <cpd smiles>
Fc1cncc(Nc2nc(NC3COC3)nc(-c3cccc(C(F)(F)F)n3)n2)c1

>  <IC50>
100 to 1000 nM

$$$$

Batch of 6 compounds: report IC50 for each.
1. CC(C)Nc1nc(Nc2ccccc2)nc(-c2ccc(Cl)cc2)n1
2. CC(C)Nc1nc(Nc2cccc(S(C)(=O)=O)c2)nc(-c2cc(F)cc(C(F)(F)F)c2)n1
3. Cc1ncc(Nc2nc(NC(C)C)nc(-c3ccccc3)n2)cn1
4. CC(C)Nc1nc(Nc2ccccc2)nc(-c2ccccc2)n1
5. Fc1cc(Nc2nc(NC3COC3)nc(-c3cccc(Cl)n3)n2)ccn1
6. N#CC1(Nc2nc(Nc3ccncc3)nc(-c3ccccc3)n2)CCC1

Result:
1. 100 to 1000 nM
2. 100 to 1000 nM
3. 100 to 1000 nM
4. < 100 nM
5. 100 to 1000 nM
6. 100 to 1000 nM

====

target: IDH2 R140Q (Homo sapiens, UniProt P48735, R140Q); assay: IDH2 R140Q enzymatic assay (cofactor depletion, similar format); format: biochemical; conditions: read-out: Enz R140Q
Give IC50 for every item shown.

Take a look at these entries with their results.
>  <compound>
CC1(Nc2nc(Nc3ccccc3)nc(-c3ccccc3)n2)COC1 [Compound 176]

>  <IC50>
< 100 nM

$$$$
>  <compound>
FC(F)(F)c1cccc(-c2nc(Nc3cnoc3)nc(NC3COC3)n2)n1 [Compound 337]

>  <IC50>
100 to 1000 nM

$$$$
>  <compound>
CC(F)(F)c1cc(Nc2nc(NCC3CC3)nc(-c3cccc(C(C)(F)F)n3)n2)ccn1 [Compound 610]

>  <IC50>
100 to 1000 nM

$$$$
>  <compound>
CC(C)Nc1nc(Nc2ccnc(Cl)c2)nc(-c2cccc(Cl)n2)n1 [Compound 354]

>  <IC50>
100 to 1000 nM

$$$$

Batch of 2 compounds: report IC50 for each.
1. CC(C)CCNc1nc(Nc2ccncc2)nc(-c2ccccc2)n1 [Compound 212]
2. CC(Nc1nc(Nc2ccnc(C(F)(F)F)c2)nc(-c2cccc(N)n2)n1)C(F)(F)F (stereo not drawn) [Compound 694]

Result:
< 100 nM
100 to 1000 nM

Batch of 3 compounds: report IC50 for each.
1. O=C(CO)Nc1nc(Nc2ccccc2)nc(-c2ccccc2)n1 [Compound 348]
2. CC(C)Nc1nc(Nc2cc(F)cc(F)c2)nc(-c2ncccc2F)n1 [Compound 459]
3. Fc1cc(Nc2nc(NC3COC3)nc(-c3ccccc3F)n2)ccn1 [Compound 628]

Result:
> 10000 nM
< 100 nM
< 100 nM
